The reported numbers originate from the supplement of paper PMC12764529.

Property: folding stability dG unfold; scope: individual sequences
# TEST SUMMARY: folding stability dG unfold (combined trypsin and chymotrypsin); higher = more stable
ENDPOINT LABEL: folding stability dG unfold (kcal/mol)

* SAGEVKIEVEGLPDKTVIRITIPYTAPGVGPSALLAVLKELGLPPETKLLKVEFYEEPKTVEALVVQGSAGG [r19_186_TrMRF] | 1.63
* SAGGSAGGMKVKIKLGPGEEVEIEVVEDKETNKLYFKIVNKKTKKVYVFETLEEAKNMSLEELLSAGGSAGG [r6_739_TrROS_Hall] | 3.22
* SAGGSAGGSAGGKPVIYRIEVRLPDSPEREIFEIEVPPDRPEVAEELAKLLGPNVKMEPLSAGGSAGGSAGG [r11_250_TrMRF] | -0.387
* SAGGSAGGSDYEYENEKDPDGQTKMKMRPKPPPVTVEVLIKLPNGLYFPIEITIYGNHITISISAGGSAGGS [r12_784_TrROS] | 2.32
* SAGGKPKPGQEVEMKMIMLMVTKPGEITIMRMKMEMRVNPDGNVQMDMKMEMVRVPLSKDQAKELLNASAGG [r13_544_TrROS] | 3.69
* SAGYWEFEIELPNGRKIEIEWQRMNGRYWFKIEVLDDNGKPVREVPIPFPNPEMPFEQMIKNAVKKILDSAG [r5_630_TrROS] | 3.41
* SPTQTITLTLPDRPVTVPLTAYPETGYVEITVTVTYPTGTKTYTFTVKAKSFEEVLAELSKLPEDFDINPSA [r9_713_TrMRF] | 1.85
* SAGGSAGGSEKLEIVKAFVFENEVILIVKKEKEYYVLKLKFKDGKIESLEFIGPVPENDPSLGSAGGSAGGS [r12_154_TrMRF] | 5.27
* SAVITYPIPDDKPTLILEPLPGSESLLILSTKREKIPNGTYKVEALVVRYEPALGASVEEKVELIEPIGSAG [r14_591_JUSTAS] | -0.239
* SAGMITPEELEERIRKLAEETGGPRYRVKVRGPDGPLYEFEVGFTPEEIERLAKELGVDIVEVEPIPESAGG [r19_50_TrMRF] | 3
* SMIKVGFNVTGLPEEAEAKAEELARELAEETGARVAGVELLEAVPHPDGGPETFNVLVTLEVPNPEAIEKSA [r9_302_TrMRF] | 1.72
* SAGGSAGGSAGGKKIKIPKKVKVKVVKKKDGKLLVYLEKTGKVIELPVEDLKNITAEDLSAGGSAGGSAGGS [r10_709_TrROS_Hall] | 0.408
* SAGGLSLEELADELAQENGWEITEAEPIEFTPNTIRFEVTVRMPDGKRRTIEIEIEIPPPKPPDQPKSAGGS [r8_309_TrROS] | 1.39

* * *

Property: folding stability dG unfold; scope: individual sequences
# TEST SUMMARY: folding stability dG unfold from trypsin proteolysis; higher = more stable
ENDPOINT LABEL: folding stability dG unfold (kcal/mol)

* SAVINIEAWFPPGKSVEEAVDEAKNIIHQFGFEIDDVDVERDPNGWVRVDFTIKIKPPMPPEQRKKLQDSAG [r14_110_TrROS] | 1.25
* SAGGAPSSSPIPIDLGDPNDEEKLKAEVEAIEKEYAAKGVTPITVERVGENKYRIKIPTGGVATVALSAGGS [r16_703_JUSTAS] | -0.55
* SLSPALEGPEALAALAAADPVPPLPVLTVKNSTGDPEKALEEVLKEHPELKPELIVEVEVGEGTLTITVLSA [r9_723_JUSTAS] | 0.442
* SAGGSAGGSGMTVVTLEAEPETAEEAVAAAIQAIRDALPADETIASVEVSFDPATGKVTVVVESAGGSAGGS [r12_308_JUSTAS] | 0.757

* * *

# TEST SUMMARY: folding stability dG unfold from chymotrypsin proteolysis; higher = more stable
Kindly return 1 if reported folding stability dG unfold is no lower than 1 kcal/mol; return -1 if it is lower.

- SAGGSADGRVVELPVRIRLYRRDPVSGRWELVEEFEVPVRVPAPKDAVVGLRIERRGDRFRIVVGVSAGGSA [r15_537_TrMRF]: 1
- SAGGSAGGSAGGMTVTVTVPPEKVEETIKKLGSKAKSVEREVLETPLGEKVAVVTVTLENSAGGSAGGSAGG [r7_904_JUSTAS]: -1
- SAGGSAGGSAGKPEFELIAKIEVNGKTYYILRNKETGEYLIYDLDTGKKYTIRKDDPNLLSAGGSAGGSAGG [r11_1007_TrROS_Hall]: 1
- SAGGSAGGSEEFVILEIPFERKFVVKDPEGGEEREFEFRPVIPLVLPPELAEKLLKSPYLQKKSAGGSAGGS [r12_1015_TrMRF]: -1
- SAGGSAGGSAGGSPNWKWVEMEITFNVPPGAKITIPNGIKLTVPPGDPVTIKIYIAVPPSAGGSAGGSAGGS [r4_232_TrROS]: 1
- KTIMIWFPFKSWEDVRNLIRDLARELNLPPGRDVDVKVERHPNNGYFRVTVTVSNPNGEKIDITIWFPMWDS [r1_84_TrROS]: 1
- SAMRIEIVRDPETGELVVRVVLPREEAEEAAEELARRLAEAGLEVEVKVVRIEETDGETRVVVEIKVKPSAG [r14_345_TrROS_Hall]: 1
- SAGGSAGGSAGGEKTIRITVKNENGETLEIEVSEEDAEELLKALEDAGISLEEITRIEPVSAGGSAGGSAGG [r7_745_TrROS_Hall]: 1
- SAGGSAGGSAGGWDEIKDILREAGWPVKNVEVQWIPNPENGKPMNSITVSYPDGKKWTIMSAGGSAGGSAGG [r7_337_TrROS]: -1
- SAGGMISEEDIEAAAKAIVEAAKNGDPERIEEEYARLEEALEEAEKEGDPERRGRLAKAVEAAKKLLGSAGG [r13_137_TrMRF]: 1
- SAGGSEEFELEFRVEAASPEEAEALAEEIRKRLEDLGLDVEVEAETLEPGAVVVRPRVRVDPETGRLDSAGG [r13_697_TrMRF]: 1
- SAGGSAGGSAMEIEIEIEIPVPVPGGVPSPENPEVAEERAEEIKEKYAKEGLKVKVKITVVSAGGSAGGSAG [r3_258_JUSTAS]: 1
- SAGGSAGGKRKIEIHIIIPPGMPPEWRKKAIEIAKWFAKTLAQENNREVEIKIEIFVLDGMPPWSAGGSAGG [r6_204_TrROS]: 1
- SAGGSAMITVKLEGKPVTVEILSREPKGRLVKAQAVVHRPDDGTEKTVSGLLSEEEIEKAIEEALASAGGSA [r15_944_JUSTAS]: -1

* * *

# TEST SUMMARY: folding stability dG unfold from trypsin proteolysis; higher = more stable
ENDPOINT LABEL: folding stability dG unfold

- SMITIPYNIQTDPSQAEKLAEEIAKEVEEKYGLKVVGVELVEWVPAPDGSESSVKVEIKIEAPDPKNILLSA [r9_302_JUSTAS]: 0.614 kcal/mol
- SAGGRPTMTAEEAAIRLIKELGIPGVKDIKEVVAVVRGGDPDNKPEKGSAILIKAEVPAEEVERLKKESAGG [r13_552_TrMRF]: 0.221 kcal/mol
- SAGGSFEPKREIEITLPNGREIEVWRYPGEGQMWVKLRFPNNGQKVEIPVKSPEDAEDSLKKFLKNSAGGSA [r2_70_TrROS]: -0.28 kcal/mol
- SAGGMTTLTLETTDEGKPLGLEEILARLREALPGVPVEVLSADPAKGVVTIAVAPEAVPEIERAVAASAGGS [r8_235_JUSTAS]: 1.69 kcal/mol

* * *

Property: folding stability dG unfold; scope: individual sequences
# TEST SUMMARY: folding stability dG unfold from chymotrypsin proteolysis; higher = more stable
ENDPOINT LABEL: folding stability dG unfold (kcal/mol)

- SAGGGSMVIPVSPEEKEAALKLLEALPSKDVKVTVTDPATGTTTTLTPEEAKKLIEATDTPLVLTLSSAGGS [r16_263_JUSTAS]: 2.92
- SAGGGSSSLPAVPVSVETFTFPYKTEEEAKAAAEELAKKLEAEDGKPVKVEVSFDPATGTATVTITVVSAGG [r13_517_JUSTAS]: 3.79
- SAGGSAGGSAGEEEELPLVIRVRFKGPEEVEIEIEAESLEDALAAIESLPDIEEIEILPRSAGGSAGGSAGG [r11_587_TrROS_Hall]: 1.98
- SAGGSAGGSAGPEIELREDSLVIRVKAKEGEVIGVPEGLEVEGVVYDPSTGELTVVVRAPSAGGSAGGSAGG [r11_942_TrMRF]: 1.73
- SAGGSAGGSENAALENPFANRPPIPPVRAVLYDPDGTPRVLEGRSLEEIRRYAEERGVVVDISSAGGSAGGS [r12_244_TrMRF]: 0.397
- SAGEIAEALGFEVVDVSIEEVDGKLRITVVVRFKDNDLVITAEAEVTEVDGELKIEIKITIEPLPPEDLSAG [r5_516_TrROS_Hall]: 3.66
- SAGGSAGGSMTVETTPLATSRDPESDNTVTLTRTTVTFPDGTVRTETWTVTTAPDGTTTTTVSSAGGSAGGS [r12_250_JUSTAS]: 1.35
- SAGGSAMTPEELANVTVEVVTTTEPASPDLTLPDGTRLPPSTTVTTTTEVVVLPGGELLGTRVTVASAGGSA [r15_12_JUSTAS]: 1.03
- SMKTLIVEGMTPEEIRALAEEAAKKGEEVEIEIVVKDNEEIKEALEEAGVEVEEVEDPETKEKVLKVTVKSA [r9_759_TrROS_Hall]: 0.412
- SAGGSAGGSAGGPEIKPFDSLEEVVEEIKKNPNKERIYLLPDSVIYTLKEDKILKIEPLKSAGGSAGGSAGG [r7_532_TrMRF]: -0.105
- SAGGSAGGSWMYKKNPDGKLEPLPPIRPVPIKIPVPINGRWIPVPIWMTVADIDYIIKEFLKNSAGGSAGGS [r20_148_TrROS]: 0.785
- SAGGSAGGSKKKKKVKYKIKVINPEKPEVKEIEIEAENEEEAKKLAEELAKKYPGVKVEIEKTSAGGSAGGS [r12_601_TrROS_Hall]: 2.95
- SVKVEVSISYDPETNTITITVRVYYKDENGNWTEVATITITIKIELPPPPPKTITLKPGVKTKEEAKKALSA [r9_888_TrROS_Hall]: 3.54
- SAGGEIKPGQTVRIRITVYNLETGEEKTIEVEVPAGKTLEEVLAELFDNLSEEERKNLVVRIEIEPVSAGGS [r16_321_TrROS_Hall]: 5.02
